Cited source: patent US10988477B2

# test.system: GCN2 kinase (Homo sapiens, UniProt Q9P2K8)
# assay.name: GCN2 enzyme inhibition assay (Transcreener ADP2 fluorescence polarization)
# Assay type: biochemical
# condition.summary: compounds of Formula II; 280 μM ATP, 4 nM GCN2 kinase
pKi: −log10 of the molar value.
observed.property: pKi

molecule=FC(F)c1ccc2ncc(-c3cc(N4CCc5ccccc54)ncn3)n2n1 test_system="GCN2 kinase (Homo sapiens, UniProt Q9P2K8)" result="6.00 to 8.00"
molecule="CS(=O)(=O)N1CCCC2(CN(c3cc(-c4cnc5ccc(C(F)F)nn45)ncn3)CCO2)C1 (centres unmarked)" test_system="GCN2 kinase (Homo sapiens, UniProt Q9P2K8)" result="6.00 to 8.00"

Provide each entry's pKi from the list below.
1. CC1CC(N=S(C)(C)=O)CN(c2cc(-c3cnc4ccc(C(F)F)nn34)ccn2)C1 (centres unmarked) [II-716]
2. NS(=O)(=O)C1CCCN(c2cc(-c3cnc4ccc(C(F)F)nn34)ncn2)C1 (centres unmarked)
3. FC(F)c1ccc2ncc(-c3ccnc(N4CCOC(c5cn[nH]c5)C4)c3)n2n1 (centres unmarked) [II-107]

Marked response:
["> 8.00", "6.00 to 8.00", "6.00 to 8.00"]

----------
# test.system: intracellular GCN2 (phosphorylation of the GCN2 substrate eIF2α) (Homo sapiens, UniProt Q9P2K8)
# Sequence (Q9P2K8 whole entry): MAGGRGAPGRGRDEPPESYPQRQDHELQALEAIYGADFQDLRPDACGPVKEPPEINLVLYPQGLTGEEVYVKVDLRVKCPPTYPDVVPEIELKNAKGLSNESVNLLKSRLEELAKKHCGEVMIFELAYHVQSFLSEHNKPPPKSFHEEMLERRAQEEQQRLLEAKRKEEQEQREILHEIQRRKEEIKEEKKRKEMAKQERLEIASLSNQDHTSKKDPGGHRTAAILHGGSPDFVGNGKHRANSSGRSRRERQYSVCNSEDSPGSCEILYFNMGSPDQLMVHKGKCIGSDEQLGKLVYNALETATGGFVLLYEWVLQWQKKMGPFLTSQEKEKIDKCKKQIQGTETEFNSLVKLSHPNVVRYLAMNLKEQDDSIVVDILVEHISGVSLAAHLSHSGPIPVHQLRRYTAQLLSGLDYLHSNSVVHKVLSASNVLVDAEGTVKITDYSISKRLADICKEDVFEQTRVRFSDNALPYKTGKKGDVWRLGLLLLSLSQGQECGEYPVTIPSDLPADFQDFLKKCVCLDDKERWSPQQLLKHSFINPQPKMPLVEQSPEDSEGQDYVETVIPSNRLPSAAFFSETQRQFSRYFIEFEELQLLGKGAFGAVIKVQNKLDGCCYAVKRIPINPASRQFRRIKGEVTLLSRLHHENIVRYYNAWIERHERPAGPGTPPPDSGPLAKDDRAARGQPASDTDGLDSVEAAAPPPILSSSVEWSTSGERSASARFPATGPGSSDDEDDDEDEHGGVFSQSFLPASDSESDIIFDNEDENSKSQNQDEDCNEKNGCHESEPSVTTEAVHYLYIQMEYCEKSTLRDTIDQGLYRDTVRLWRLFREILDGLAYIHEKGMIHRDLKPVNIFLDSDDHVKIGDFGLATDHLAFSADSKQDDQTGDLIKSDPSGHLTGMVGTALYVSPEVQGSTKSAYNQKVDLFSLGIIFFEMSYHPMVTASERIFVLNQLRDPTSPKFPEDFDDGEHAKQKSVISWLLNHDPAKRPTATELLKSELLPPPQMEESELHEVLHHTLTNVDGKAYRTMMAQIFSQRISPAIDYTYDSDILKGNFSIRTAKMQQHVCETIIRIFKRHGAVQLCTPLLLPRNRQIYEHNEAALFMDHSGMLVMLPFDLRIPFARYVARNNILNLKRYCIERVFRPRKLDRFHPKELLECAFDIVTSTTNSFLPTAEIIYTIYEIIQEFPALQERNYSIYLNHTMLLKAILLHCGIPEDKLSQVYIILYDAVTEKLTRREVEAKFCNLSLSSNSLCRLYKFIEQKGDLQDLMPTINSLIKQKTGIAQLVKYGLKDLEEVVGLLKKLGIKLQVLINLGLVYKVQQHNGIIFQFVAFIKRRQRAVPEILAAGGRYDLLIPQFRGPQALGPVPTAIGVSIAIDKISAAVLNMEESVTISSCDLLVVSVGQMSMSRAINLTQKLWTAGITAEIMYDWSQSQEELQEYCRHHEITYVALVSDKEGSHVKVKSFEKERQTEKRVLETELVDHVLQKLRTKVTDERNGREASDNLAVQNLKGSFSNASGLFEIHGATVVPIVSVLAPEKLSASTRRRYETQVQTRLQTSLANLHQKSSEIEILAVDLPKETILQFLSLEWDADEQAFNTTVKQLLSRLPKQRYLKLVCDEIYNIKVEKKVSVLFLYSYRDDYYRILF
# assay.name: GCN2 cellular inhibition assay (AlphaScreen SureFire P-eIF2α Ser51, borrelidin-treated U2OS cells)
# Type: cell-based
# condition.summary: compounds of Formula IV; biomarker assay, phosphorylated eIF2α Ser51 in borrelidin-treated U2OS cells
pIC50: −log10 of the molar value.
observed.property: pIC50

compound="NS(=O)(=O)CC1CCCN(c2ccnc(-c3cnc4cnc(C(F)F)cn34)n2)C1 (centres unmarked)" observed_property=pIC50 result="< 5.30"

For each entry beneath this line, provide reported pIC50.
1. CC1CN(c2ccnc(-c3cnc4cnc(C(F)(F)F)cn34)n2)C(C)C(c2cn[nH]c2)O1 (centres unmarked) [IV-415]
2. CC1CN(c2ncc(F)c(-c3cnc4cnc(C(F)(F)F)cn34)n2)C(C)C(c2cn[nH]c2)N1 (centres unmarked)
3. FC(F)(F)c1cn2c(-c3nccc(N4CCCC(n5ccnn5)C4)n3)cnc2cn1 (centres unmarked)
4. CC1CN(c2nccc(-c3cnc4cnc(C(F)(F)F)cn34)n2)CC(c2cn[nH]c2)O1 (single isomer, unassigned) [IV-201]
5. C[C@H]1[C@@H](c2cn[nH]c2)N(C)CCN1c1ccnc(-c2cnc3cnc(Br)cn23)n1 (relative stereo)
6. NC(=O)c1cn2c(-c3cccc(-c4cccc5[nH]ccc45)n3)cnc2cn1
7. FC(F)(F)c1cn2c(-c3nccc(N4CC(c5cn[nH]c5)N5CCC[C@H]5C4)n3)cnc2cn1 (some centres unmarked)

Marked response:
1. > 6.30
2. 5.30 to 6.30
3. < 5.30
4. > 6.30
5. > 6.30
6. 5.30 to 6.30
7. 5.30 to 6.30

----------
# test.system: intracellular GCN2 (phosphorylation of the GCN2 substrate eIF2α) (Homo sapiens, UniProt Q9P2K8)
# assay.name: GCN2 cellular inhibition assay (AlphaScreen SureFire P-eIF2α Ser51, borrelidin-treated U2OS cells)
# Type: cell-based
# condition.summary: compounds of Formula IV; biomarker assay, phosphorylated eIF2α Ser51 in borrelidin-treated U2OS cells
observed.property: IC50

compound="FC(F)c1cn2c(-c3nccc(N4CCC(c5ccccn5)C4)n3)cnc2cn1 (centres unmarked)" result="> 5 µM"
compound="FC(F)c1cn2c(-c3nccc(N4CCCC5CCCC54)n3)cnc2cn1 (centres unmarked)" result="> 5 µM"

Hi team, please reply with IC50 for each item in this list.
1. Cc1n[nH]cc1[C@@H]1C[C@@H](O)CN(c2ccnc(-c3cnc4cnc(C(F)(F)F)cn34)n2)C1
2. NC(=O)C1CCCN(c2cccc(-c3cnc4cnc(C(F)F)cn34)n2)C1 (centres unmarked)
3. CC1CN(c2cccc(-c3cnc4cnc(C(F)(F)F)cn34)n2)C(C)C(c2cn[nH]c2)N1 (centres unmarked)
4. CS(=O)(=O)C1CCCN(c2ccnc(-c3cnc4cnc(C(F)F)cn34)n2)C1 (centres unmarked)

Marked response:
> 5 µM
0.5 to 5 µM
0.5 to 5 µM
> 5 µM

Required: IC50, one value per compound below.
1. CC1C(c2cn[nH]c2)OCCN1c1nccc(-c2cnc3cnc(C(F)(F)F)cn23)n1 (centres unmarked)
2. FC(F)c1cn2c(-c3nccc(N4CCC(C5COC5)C4)n3)cnc2cn1 (centres unmarked)
3. N#Cc1cn2c(-c3nccc(N4CCCC(c5c[nH]cn5)C4)n3)cnc2cn1 (centres unmarked)
4. CC(NS(C)(=O)=O)C1CN(c2ccnc(-c3cnc4cnc(C(F)F)cn34)n2)CCO1 (centres unmarked) [IV-62]
5. CC1CN(c2cc(N=S(C)(C)=O)nc(-c3cnc4cnc(C(F)(F)F)cn34)n2)C(C)C(c2cn[nH]c2)N1 (centres unmarked)
6. Brc1cn2c(-c3nccc(N4CCCC(c5c[nH]cn5)C4)n3)cnc2cn1 (centres unmarked) [IV-363]
7. C[C@@H]1CCC[C@H](C)N1c1ccnc(-c2cnc3cnc(C(F)F)cn23)n1

Marked response:
1. 0.5 to 5 µM
2. > 5 µM
3. > 5 µM
4. > 5 µM
5. 0.5 to 5 µM
6. < 0.5 µM
7. > 5 µM

Below are 2 compounds. Give each one its IC50.
1. O=C1OCC2CN(c3ccnc(-c4cnc5cnc(C(F)F)cn45)n3)CCN12 (centres unmarked)
2. CC1CN(c2ccnc(-c3cnc4cnc(Br)cn34)n2)CC(c2cn[nH]c2)N1 (single isomer, unassigned) [IV-365]

Marked response:
1. > 5 µM
2. 0.5 to 5 µM

Report IC50 for every entry below.
1. CC1CN(c2ccnc(-c3cnc4cnc(C(F)(F)F)cn34)n2)CC(c2cn[nH]c2)O1 (single isomer, unassigned) [IV-14]
2. Cc1n[nH]c(C)c1C1CCN(c2ccnc(-c3cnc4cnc(C(F)(F)F)cn34)n2)C1 (centres unmarked)

Marked response:
< 0.5 µM
> 5 µM

----------
# test.system: GCN2 kinase (Homo sapiens)
# assay.name: GCN2 enzyme inhibition assay (Transcreener ADP2 fluorescence polarization)
# Assay type: biochemical
# condition.summary: compounds of Formula II; 280 μM ATP, 4 nM GCN2 kinase
pKi: −log10 of the molar value.
observed.property: pKi

Some compounds with recorded pKi:
compound=FC(F)c1ccc2ncc(-c3cc(C4=CCOCC4)ncn3)n2n1 observed_property=pKi result="6.00 to 8.00"
compound="CNc1cc(-c2cnc3ccc(C(F)F)nn23)cc(N2CCCC(CNS(C)(=O)=O)C2)n1 (centres unmarked)" observed_property=pKi result="> 8.00"
compound="O=S1(=O)CCCC1C1CCCN(c2cc(-c3cnc4ccc(C(F)F)nn34)ncn2)C1 (centres unmarked)" observed_property=pKi result="6.00 to 8.00"
compound="CS(=O)(=O)NCC1CCCN(c2cc(-c3cnc4ccc(C(F)F)nn34)cc(CN)n2)C1 (centres unmarked)" observed_property=pKi result="> 8.00"

Exam item: Given the compound O=C1NCC2CCN(c3cc(-c4cnc5ccc(C(F)F)nn45)ncn3)CC12 (centres unmarked) , what is its reported pKi?
Marked response: 6.00 to 8.00

----------
Kindly supply the reported Ki values for the records listed here.
# test.system: GCN2 kinase (Homo sapiens, UniProt Q9P2K8)
# assay.name: GCN2 enzyme inhibition assay (Transcreener ADP2 fluorescence polarization)
# Type: biochemical
# condition.summary: Enzyme activity for compounds of Formula IV; Ki(app), 280 μM ATP, 25° C.

Please review the following examples before continuing.
compound=CC(=O)N1CCN(c2cccc(-c3cnc4cnc(C(F)(F)F)cn34)n2)CC1 observed_property=Ki result="0.1 to 1 µM"
compound="CC1CN(c2ccnc(-c3cnc4cnc(C(F)(F)F)cn34)n2)C(C)C(c2cnn(C)c2)N1 (stereo not drawn)" observed_property=Ki result="0.1 to 1 µM"
compound=c1cc(-c2ccc3cc[nH]c3c2)nc(-c2cnc3cnccn23)c1 observed_property=Ki result="0.1 to 1 µM"

Field: Ki. Fill in for each record below.
1. CC1CN(c2cncc(-c3cnc4cnc(C(F)(F)F)cn34)n2)C(C)C(c2cn[nH]c2)N1 (single isomer, unassigned) [IV-649]
2. O=C(Nc1cn[nH]c1)[C@H]1CCCN(c2ccnc(-c3cnc4cnc(C(F)(F)F)cn34)n2)C1
3. OCC1CN(c2ccnc(-c3cnc4cnc(C(F)(F)F)cn34)n2)CCO1 (stereo not drawn)
4. O=S(=O)(NC1CCCC1)C1CCCN(c2ccnc(-c3cnc4cnc(C(F)F)cn34)n2)C1 (stereo not drawn)
5. CC1CN(c2ccnc(-c3cnc4cnc(Br)cn34)n2)C(C)C(c2cn[nH]c2)N1 (single isomer, unassigned) [IV-288]
6. c1cc(N2CCOC(c3cn[nH]c3)C2)nc(-c2cnc3cnc(C4CC4)cn23)n1 (stereo not drawn)

Marked response:
0.1 to 1 µM
0.1 to 1 µM
0.1 to 1 µM
0.1 to 1 µM
< 0.01 µM
< 0.01 µM
